Test system: Hs578T
Test: normalised response (% of control), CellTiter-Glo; higher = more viable cells (100 = DMSO, 0 = benzethonium chloride kill control)
Details: incubation time: 72 h
Listed next: entries and their corresponding normalised response.
Just the number please, in %, no unit attached.

CS(=O)(=O)N1CCN(Cc2cc3nc(-c4cccc5[nH]ncc45)nc(N4CCOCC4)c3s2)CC1 [Pictilisib] (1 nM) | 99.7
C[C@]12C=CC(=O)C=C1CC[C@@H]1[C@@H]2[C@@H](O)C[C@@]2(C)[C@H]1CC[C@]2(O)C(=O)CO [Prednisolone] (1 nM) | 102
CNC(=O)c1cc(Oc2ccc(NC(=O)Nc3ccc(Cl)c(C(F)(F)F)c3)cc2)ccn1 [Sorafenib] (1 nM) | 102
Cc1cccc(-c2nn3c(c2-c2ccnc4ccc(C(N)=O)cc24)CCC3)n1 [Galunisertib] (0.1 nM) | 110

Continue with the next compound.
Prompt line: Using the record for CC(C)N(CCCNC(=O)Nc1ccc(C(C)(C)C)cc1)C[C@H]1O[C@@H](n2cc(Br)c3c(N)ncnc32)[C@H](O)[C@@H]1O [SGC0946] (1 nM) , state its measured normalised response.
Response line: 96
